Record form. Attribute: mitochondrial superoxide. Fill in for each entry.
Tested on: iBMDM (immortalised mouse bone-marrow-derived macrophages), LPS-stimulated
Assay: mitochondrial superoxide (MitoSOX fluorescence) fold increase over unstimulated control; higher = more LPS-induced mitochondrial ROS (less inhibition)
Settings: inhibitor concentration: 500 nM; LPS: 100 ng/ml; time after LPS: 4 h
Enter the number alone.

[Q] Tell me measured mitochondrial superoxide for Nc1ncnc2c1c(-c1cccc(OCc3ccccc3)c1)cn2C1CC(CN2CCC2)C1 (centres undefined) please.
[A] 1.63

[Q] Determine its reported mitochondrial superoxide: Cn1c(=O)c(F)c(Nc2ccc(I)cc2F)c2c(=O)n(C[C@@H](O)CO)cnc21
[A] 1.51

[Q] Query mitochondrial superoxide for CCCCOc1c(C(=O)c2c(F)cc(C)cc2F)c[nH]c2nncc1-2
[A] 1.37

[Q] Let me know recorded mitochondrial superoxide for Fc1cc(-c2cccc3ncc(-c4cnn(C5CCNCC5)c4)nc23)cc(F)c1CN1CCOCC1 , thanks.
[A] 1.69
